System: Vero E6 infected with SARS-CoV-2
Test: inhibition of SARS-CoV-2 cytopathic effect; higher = more antiviral protection, active = above 15
Details: 1 nM; 48 h
Reported inhibition of SARS-CoV-2 cytopathic effect values are given for each entry in this list.
RESULT_TYPE: inhibition of SARS-CoV-2 cytopathic effect (%)

| COMPOUND | TEST_RESULT |
| --- | --- |
| COc1ccccc1OCC(O)CO (stereo not drawn) | 1.29 |
| Cc1[nH]c(=O)c(C#N)cc1-c1ccncc1 | 1.1 |
| C[C@H]1O[C@@H](O[C@H]2CC[C@@]3(C)[C@H](CC[C@@H]4[C@@H]3C[C@@H](O)[C@]3(C)[C@@H](C5=CC(=O)OC5)CC[C@]43O)C2)C[C@H](O)[C@@H]1O[C@H]1C[C@H](O)[C@H](O[C@H]2C[C@H](O)[C@H](O[C@@H]3O[C@H](CO)[C@@H](O)[C@H](O)[C@H]3O)[C@@H](C)O2)[C@@H](C)O1 [deslanoside] | -1.34 |
| C[N+](C)(C)CCCCCNCC12CC3CC(CC(C3)C1)C2 | -4.72 |
| COc1cc(C(=S)N2CCOCC2)ccc1O [vanitiolide] | -0.99 |
| N[C@@H]1CCCN(c2c(/C=C3\SC(=O)NC3=O)cccc2-c2ccccc2)C1 | 3.5 |
| CC(C)(C)NCC(O)c1cc(O)cc(O)c1 (stereo not drawn) | -2.09 |
| C[n+]1cccc(C(=O)[O-])c1 | 5.14 |
